Catalogue of compounds with associated activity change, negative = inhibition
assay: qHTS Assay for Lipid Storage Modulators (AID 1519); conditions: Drosophila S3 cells, BODIPY lipid droplet/cell ratio, laser cytometry; at 57.5 µM (top of the series); cells loaded with oleic acid; as to activity change, negative = inhibition: % is scaled to controls: 0 for no effect and ±100 for the full control effect
Inconclusive results are not listed.
Field format: number, assumed %, no unit text.

compound	activity change, negative = inhibition (%)
CC(=O)OC1CC(OC(C)=O)[C@]2(C)C(CC(OC(C)=O)[C@]3(C)C2CC[C@@]2(C)C(c4ccoc4)OC(=O)C4O[C@]432)C1(C)C (some centres undefined)	0.867
Nc1nc2[nH]c(=O)c(=O)[nH]c2c(=O)[nH]1	4.12
CC(C)CCCC(C)C1CCC2C3CC(O)[C@@]4(O)CC(O)CC[C@@]4(C)C3CC[C@@]12C (some centres undefined)	4.13

Prompt line: So what does the record say about activity change, negative = inhibition for CC(=O)OC1CC2C(C)(C)C(=O)CC[C@]2(C)C2CC[C@@]3(C)C(c4ccoc4)OC(=O)C4OC43[C@]12C (some centres undefined) ?
Response line: 5.91

Prompt line: Any idea what its activity change, negative = inhibition is? The compound is CCC(=O)OC1C2CC3=C4CC(=O)OC(c5ccoc5)[C@]4(C)CCC3[C@@](C)(C2=O)C(CC(=O)OC)C1(C)C (some centres undefined)
Response line: -15.8

Prompt line: What does the data say about its activity change, negative = inhibition? Entry: O=C(/C=C/c1ccc(O)cc1)c1ccccc1O
Response line: -18.4

Prompt line: Please give the measured activity change, negative = inhibition for this compound: CC(=O)Oc1c(C)cccc1C(=O)O
Response line: 5.46

Prompt line: Quick one: activity change, negative = inhibition of OCC(O)C(O)[C@H](O[C@H]1OC(CO)C(O)C(O)C1O)[C@H](O)CO (some centres undefined) ?
Response line: 3.91

Prompt line: What measured activity change, negative = inhibition goes with CC(=O)c1c(O)c(C)c(O)c2c1OC1=CC(=O)C(C(C)=O)C(=O)C12C (centres undefined) ?
Response line: 6.96

Prompt line: Quick check: activity change, negative = inhibition of CCOC(=O)c1c(C)cc(O)cc1O ?
Response line: 13

Prompt line: Form field: reported activity change, negative = inhibition of CC(=O)OCC(=O)[C@]1(O)C(C)CC2C3CCC4=CC(=O)C=C[C@@]4(C)[C@]3(F)C(O)C[C@@]21C (some centres undefined)
Response line: -6.8

Prompt line: Given the compound C/C=C1\C2C=C(C)C[C@@]1(N)c1ccc(=O)[nH]c1C2 , what is its reported activity change, negative = inhibition?
Response line: 13.7

Prompt line: Can you look up the measured activity change, negative = inhibition of CC(=O)OC1CC[C@]2(C)C(CC(OC(C)=O)[C@]3(C)C2CC[C@@]2(C)C(c4ccoc4)OC(=O)C4O[C@]432)C1(C)C (some centres undefined) for me?
Response line: 15.1

----------
target: Rap guanine nucleotide exchange factor 3 (Homo sapiens); test: Counterscreen qHTS for agonist of cAMP-regulated guanine nucleotide exchange factor 3 (EPAC1) (AID 1645889); settings: EPAC1 Rap1B-BODIPY-GDP exchange, fluorescence; series mostly up to 154 µM; also: % of control where 0% means no effect; nearly all actives have a fitted effect of over 40% in size
Results filed as inconclusive are left out. The source made the active and inactive calls. Calls come from the whole dose curve; as a rule, active = well fitted activation curve with a large enough effect; inconclusive = small, poorly fitted or top-dose-only effect, or another doubt; inactive = no such curve, though single readings can be large or run the other way.
observable: activation

Some solved entries appear below for comparison.
molecule	activation
COC(=O)c1ccc(NC(=O)CCOc2ccccc2)cc1	inactive
CSc1nc(N2CCOCC2)c2c3c(sc2n1)CCCC3	inactive
NS(=O)(=O)c1ccc(-c2cccc(/C=C3\SC(=O)NC3=O)c2)cc1	inactive
COc1ccc(C(=O)Nc2cccc(/C=C(\CCC(=O)O)c3nc4ccccc4s3)c2)cc1	inactive
CN(Cc1ccccc1F)c1nc(-c2cccs2)nc2ccccc12	4.35% [at 30.8 µM] (inactive)
c1ccc(-c2nnc3sc(CN4CCC5(CC4)OCCO5)cn23)cc1	inactive
Cc1ccc(S(=O)(=O)N2CCN(C(=O)CC(C)n3nc(C)c(Cl)c3C)CC2)cc1 (stereo unspecified)	6.22% [at 30.8 µM] (inactive)
O=C(CSc1nnc(CCc2ccccc2)n1-c1ccc(Cl)cc1)NCc1ccccc1	inactive
COc1ccccc1CCc1nnc(CCC(=O)N(C)Cc2cccc3ncccc23)o1	inactive
O=C(COC(=O)Cc1ccc(Cl)cc1)Nc1ccc2[nH]c(=O)[nH]c2c1	-0.761% [at 30.8 µM] (inactive)

# next molecule below
Prompt line: Need activation, item Cc1noc(C)c1CSc1ncnc2sc(C)c(C)c12
Response line: inactive

----------
assay: qHTS Assay for Lipid Storage Modulators (AID 1519); details: Drosophila S3 cells, BODIPY lipid droplet/cell ratio, laser cytometry; measured here: cell count channel max response; cells loaded with oleic acid
Records with an inconclusive call do not appear.
observable: max response
Hi, when you answer, please include the unit after the number. Thanks!

Completed entries (count: 4):
molecule	test.value
Nc1nc(O)c2ncn([C@H]3CC[C@@H](CO)O3)c2n1	-2.43%
Cc1cn(C2CCC(CO)O2)c(=O)[nH]c1=O (stereo unspecified)	13.1%
CN[C@@H]1[C@H](O[C@H]2[C@@H](O[C@@H]3[C@@H](O)[C@@H](O)[C@@H](N=C(N)N)[C@@H](O)[C@@H]3N=C(N)N)O[C@@H](C)[C@]2(O)CO)O[C@H](CO)[C@@H](O)[C@@H]1O	-9.77%
O=c1cc(-c2ccc(O)c(O)c2)oc2ccccc12	-4.12%

Now look at this one.
Prompt line: Consider the molecule Nc1ncnc2c1[nH]c(=O)n2C1OC(CO)C(O)C1O (stereo unspecified) and give its measured max response.
Response line: 11.6%

----------
assay: qHTS drug screen for cell cycle checkpoint inhibitors in PARPi-resistant BRCA-mutant ovarian cancer cell lines. (AID 1963452); settings: PEO1/OlaR viability, CellTiter-Glo luminescence, 96 h; measured here: PEO4 Z-AUC; stronger effect = lower value
observable: Z-AUC
Respond with the number and no other words.

Known Z-AUC results, listed for orientation:
compound	Z-AUC
CSc1ccc(C(=O)/C=C/c2cc(C)c(OC(C)(C)C(=O)O)c(C)c2)cc1	-0.391
COc1ccc(S(=O)(=O)N2CCc3cccc(-c4ccncc4)c32)cc1	-1.55
CC(C)(C)C[C@H]1N[C@@H](C(=O)NC2CCC(O)CC2)[C@H](c2cccc(Cl)c2F)[C@@]12C(=O)Nc1cc(Cl)ccc12 (some centres undefined)	0.282

Please look at the following compound next.
Prompt line: Which Z-AUC value is on record for CN[C@@H](C)C(=O)N[C@H](C(=O)N1CCC[C@H]1c1nc(C(=O)c2ccc(F)cc2)cs1)C1CCCCC1 ?
Response line: -0.73

----------
experiment: qHTS profiling for inhibitors of Plasmodium falciparum proliferation (AID 504749);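 also: 0% = DMSO vehicle and full inhibition = artemisinin control; nearly all actives have a fitted effect of over 60% in size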; settings: P. falciparum in erythrocytes, SYBR Green DNA, 72 h; at 12.8 µM (top of the series); parasite line A
Inconclusive results are not listed.
The molecules listed here are annotated with their activity, negative = inhibition.
Kindly provide the numeric value in % only, without the unit symbol.

Below: 8 molecules and their reported activity, negative = inhibition.
molecule	activity, negative = inhibition (%)
Cc1onc(-c2ccccc2Cl)c1C(=O)N[C@H]1C(=O)N2[C@H]1SC(C)(C)[C@H]2C(=O)O	10.5
Cc1ccsc1/C=C\C1=NCCCN1C	10.5
CN[C@H]1[C@@H](O)[C@@H](NC)[C@@H]2O[C@@]3(O)C(=O)C[C@@H](C)O[C@H]3O[C@H]2[C@H]1O	-10.3
CN1CCN([C@@H](c2ccccc2)c2ccc(Cl)cc2)CC1	1.67
CC(=O)[C@@]1(O)CC[C@H]2[C@H]3C[C@@H](C)C4=CC(=O)C=C[C@]4(C)[C@@]3(F)[C@@H](O)C[C@]21C	-2.85
NC(=O)N[C@H]1NC(=O)NC1=O	2.27
CO[C@]1(NC(=O)[C@H](C(=O)O)c2ccc(O)cc2)C(=O)N2C(C(=O)O)=C(CSc3nnnn3C)CO[C@H]21	8.42
Cn1nnnc1SCC1=C(C(=O)O)N2C(=O)[C@@H](NC(=O)[C@@H](O)c3ccccc3)[C@@H]2SC1	11.7

Prompt line: Endpoint output: activity, negative = inhibition of C[C@@H]1Cc2ccccc2N1NC(=O)c1ccc(Cl)c(S(N)=O)c1 (stereo not given in full) . Value?
Response line: 15.9

Prompt line: I would be grateful if you could share the reported activity, negative = inhibition for Cc1cccc(C)c1NC(=O)[C@H](C)N .
Response line: 7.15

----------
biological target: Rap guanine nucleotide exchange factor 3 (Homo sapiens); assay: Counterscreen qHTS for antagonist of cAMP-regulated guanine nucleotide exchange factor 3 (EPAC1) (AID 1645888); conditions: Rap1B-BODIPY-GDP nucleotide exchange, fluorescence; series mostly up to 154 µM;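 also: fluorescence loss as bound BODIPY-GDP is released from Rap1B; % of control where 0% means no effect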
Inconclusive results are not listed. Activity calls are given as the source filed them. Calls come from the whole dose curve; as a rule, active = well fitted inhibition curve with a large enough effect; inconclusive = small, poorly fitted or top-dose-only effect; inactive = no such curve, though single readings can be large or run the other way.
observable: activity change, negative = inhibition

Previously resolved entries follow.
molecule	tested.target	observable	test.value
CCOC(=O)c1cc2c(=O)n3ccccc3nc2n(Cc2ccco2)c1=NC(=O)c1ccc(Br)cc1	Rap guanine nucleotide exchange factor 3 (Homo sapiens)	activity change, negative = inhibition	inactive
Clc1ccccc1Cn1c(-c2cccs2)nc2ccccc21	Rap guanine nucleotide exchange factor 3 (Homo sapiens)	activity change, negative = inhibition	inactive
CCc1nc2c(OCc3ccc(Cl)cc3)cccn2c1N(C)C(=O)c1ccccc1F	Rap guanine nucleotide exchange factor 3 (Homo sapiens)	activity change, negative = inhibition	-10.9% [at 30.8 µM] (inactive)
O=C(N/N=C/c1cc(Br)c(O)c(Br)c1)c1cc2c(ccc3ccccc32)o1	Rap guanine nucleotide exchange factor 3 (Homo sapiens)	activity change, negative = inhibition	-6.71% [at 30.8 µM] (inactive)
COCCOC(=O)C(C#N)c1nc2ccccc2nc1N1CCN(Cc2ccccc2)CC1 (stereo not given)	Rap guanine nucleotide exchange factor 3 (Homo sapiens)	activity change, negative = inhibition	4.89% [at 30.8 µM] (inactive)
O=C(CCN1C(=O)/C(=C/c2cccs2)SC1=S)Nc1ccc(C(=O)O)c(O)c1	Rap guanine nucleotide exchange factor 3 (Homo sapiens)	activity change, negative = inhibition	19.6% [at 30.8 µM] (inactive)
O=C1Nc2ccccc2Nc2ncccc21	Rap guanine nucleotide exchange factor 3 (Homo sapiens)	activity change, negative = inhibition	0.957% [at 30.8 µM] (inactive)
CC(=O)/C(=C/N(C)C)Sc1ccc(C)cc1	Rap guanine nucleotide exchange factor 3 (Homo sapiens)	activity change, negative = inhibition	inactive

Prompt line: Looking for the measured activity change, negative = inhibition of Cc1cccc(C(=O)Nc2ccc3c(c2)ncn3C)c1 , can you help?
Response line: inactive

Prompt line: Requested field: activity change, negative = inhibition. Item: Cc1ccc(S(=O)(=O)N2[C@@H](c3ccc(Br)cc3)C(C(=O)O)=CC[C@H]2c2ccc(Cl)c(Cl)c2)cc1
Response line: inactive

These data points were gathered from PubChem BioAssay (NCATS).
